Recorded values, source the antibiotic and cytotoxicity screens of Wong et al. (2023).

Tested on: HSkMC
experiment_description: cytotoxicity call (relative viability < 0.9)
setup_conditions: 10 µM
Out of some 39,000 compounds screened, about 1,500 (3.8%) were called active. The list comes from a sample in which actives are over-represented; it also holds close analogues and randomly drawn compounds.
Lab note: assign the record to one of active, inactive

Consider the worked cases shown below.
molecule | group_label
C[C@@H]1CN([C@H](C)CO)C(=O)CCCn2cc(nn2)CO[C@H]1CN(C)S(=O)(=O)c1cn(C)cn1 | inactive
C[C@@H]1CN([C@H](C)CO)C(=O)c2cc(NS(=O)(=O)c3ccccc3)ccc2O[C@H]1CN(C)Cc1ccc(-c2ccccc2)cc1 | inactive

Query block: I'd appreciate the recorded outcome for O=C(C[C@H]1CC[C@H]2[C@@H](COC[C@H](O)CN2C(=O)c2cccnc2)O1)NCc1ccc(-c2ccccc2)cc1 from this test.
Result block: inactive

Query block: I'd appreciate the recorded outcome for Cc1noc(C)c1NC(=O)N(C)C[C@@H]1Oc2ccc(NS(=O)(=O)c3cccs3)cc2CC(=O)N([C@@H](C)CO)C[C@H]1C from this test.
Result block: inactive

Query block: I'd appreciate the recorded outcome for CCS(=O)(=O)Nc1ccc2c(c1)C(=O)N(C)[C@@H]1CC[C@@H](CC(=O)N[C@H]3CCN(Cc4ccccc4)C3)O[C@H]1CO2 from this test.
Result block: inactive

Query block: I'd appreciate the recorded outcome for C[C@@H]1CCCCO[C@H](CN(C)Cc2ccc(C(F)(F)F)cc2)[C@H](C)CN([C@@H](C)CO)C(=O)c2cc(NC(=O)CCC(F)(F)F)ccc2O1 from this test.
Result block: inactive

Query block: I'd appreciate the recorded outcome for NC(=O)c1nc2c(s1)CCNCC2 from this test.
Result block: inactive

Query block: I'd appreciate the recorded outcome for COC1CC(OC2C(C)OC(OC3C(C)=CCC4CC(CC5(C=CC(C)C(C6CCCCC6)O5)O4)OC(=O)C4C=C(C)C(O)C5OCC(=CC=CC3C)C45O)CC2OC)OC(C)C1O (configuration not stated) from this test.
Result block: inactive

Query block: I'd appreciate the recorded outcome for COc1ccc(S(=O)(=O)Nc2ccc3c(c2)CC(=O)N([C@H](C)CO)C[C@@H](C)[C@H](CN(C)C(=O)Nc2c(C)noc2C)O3)cc1 from this test.
Result block: inactive

---

Tested on: HSkMC (human skeletal muscle cells)
experiment_description: cytotoxicity call (relative viability < 0.9)
setup_conditions: 10 µM
About 1,500 (3.8%) of roughly 39,000 compounds were called active. Many of the other results were omitted from the sample, so actives are more common in it than they were.
Lab note: assign the record to one of y (active), n (inactive)

molecule | group_label
COc1ccc(CN(C)C[C@H]2Oc3c(NC(=O)C4CCOCC4)cccc3C(=O)N([C@@H](C)CO)C[C@@H]2C)cc1 | n
C[C@H](CO)N1C[C@H](C)[C@H](CN(C)Cc2ccc(C(F)(F)F)cc2)OCCCC[C@H](C)Oc2ccc(NC(=O)Nc3ccccc3)cc2C1=O | n
CCOC(=O)CN1CCN(C=O)CC1 | n
COc1ccc(CN(C)C[C@H]2OCCCC[C@H](C)Oc3ccc(NC(=O)NC(C)C)cc3C(=O)N([C@H](C)CO)C[C@H]2C)cc1 | n
COc1ccc(S(=O)(=O)N(C)C[C@@H]2Oc3cc(C4=CCCC4)ccc3S(=O)(=O)N([C@H](C)CO)C[C@@H]2C)cc1 | n

Query block: I'd appreciate the recorded outcome for C[C@@H]1CCCCO[C@H](CN(C)C(=O)c2ccccc2)[C@H](C)CN([C@H](C)CO)C(=O)c2cc(NS(=O)(=O)c3ccc(Cl)cc3)ccc2O1 from this test.
Result block: n

Query block: I'd appreciate the recorded outcome for Cc1ccc(S(=O)(=O)N(C)C[C@H]2Oc3ccc(NS(=O)(=O)c4ccc(F)cc4)cc3CC(=O)N([C@H](C)CO)C[C@H]2C)cc1 from this test.
Result block: n

Query block: I'd appreciate the recorded outcome for COc1ccccc1CNC(=O)C[C@@H]1C[C@H]2c3cc(NC(=O)C4CCOCC4)ccc3O[C@H]2[C@@H](CO)O1 from this test.
Result block: n

Query block: I'd appreciate the recorded outcome for C[C@H]1CN([C@@H](C)CO)C(=O)c2cccc(NC(=O)Nc3ccc4c(c3)OCO4)c2O[C@H]1CN(C)S(C)(=O)=O from this test.
Result block: n

Query block: I'd appreciate the recorded outcome for C[C@H]1CN([C@@H](C)CO)C(=O)c2cccc(NC(=O)c3cnccn3)c2O[C@H]1CN(C)Cc1ccncc1 from this test.
Result block: n

Query block: I'd appreciate the recorded outcome for CS(=O)(=O)O.Oc1ccc(C2CNCCc3c2cc(O)c(O)c3Cl)cc1 (centres undefined) from this test.
Result block: n

Query block: I'd appreciate the recorded outcome for C[C@@H]1CCCCO[C@@H](CN(C)C(=O)CCCN(C)C)[C@@H](C)CN([C@H](C)CO)C(=O)c2cc(NC(=O)Nc3ccc(C(F)(F)F)cc3)ccc2O1 from this test.
Result block: n

Query block: I'd appreciate the recorded outcome for CN1C(=O)C[C@H](C(=O)O)[C@H]1c1cccnc1 from this test.
Result block: n

Query block: I'd appreciate the recorded outcome for C[C@@H]1CN([C@@H](C)CO)C(=O)c2ccccc2-c2ccccc2CO[C@H]1CN(C)S(=O)(=O)c1ccc(C(F)(F)F)cc1 from this test.
Result block: n

Query block: I'd appreciate the recorded outcome for C[C@H](CO)N1C[C@H](C)[C@H](CN(C)S(=O)(=O)c2cccs2)Oc2c(NS(=O)(=O)c3ccccc3)cccc2C1=O from this test.
Result block: n

Query block: I'd appreciate the recorded outcome for C=C1C(c2ccc(C)cc2)=CCc2cc(C)cc(C)c21 from this test.
Result block: n

Query block: I'd appreciate the recorded outcome for C[C@@H]1CCCCO[C@@H](CN(C)Cc2ccc(C(F)(F)F)cc2)[C@H](C)CN([C@H](C)CO)C(=O)c2cc(NC(=O)c3ccccc3)ccc2O1 from this test.
Result block: n

Query block: I'd appreciate the recorded outcome for COc1ccc(NC(=O)Nc2ccc3c(c2)C(=O)N([C@@H](C)CO)C[C@@H](C)[C@@H](CN(C)Cc2ccc(C(F)(F)F)cc2)OCCCC[C@@H](C)O3)cc1 from this test.
Result block: n

Query block: I'd appreciate the recorded outcome for CN1CCN(C(=O)C[C@@H]2C=C[C@H](NS(=O)(=O)c3cccc(F)c3)[C@H](CO)O2)CC1 from this test.
Result block: n

Query block: I'd appreciate the recorded outcome for C[C@@H]1CCCCO[C@@H](CN(C)C(=O)Cc2ccccc2)[C@@H](C)CN([C@H](C)CO)C(=O)c2cc(NC(=O)Cc3ccccc3)ccc2O1 from this test.
Result block: n

Query block: I'd appreciate the recorded outcome for C[C@H]1CN([C@@H](C)CO)C(=O)c2cc(NS(C)(=O)=O)ccc2O[C@H]1CN(C)Cc1ccc2c(c1)OCO2 from this test.
Result block: n

Query block: I'd appreciate the recorded outcome for Cc1noc(C)c1NC(=O)Nc1ccc2c(c1)CC(=O)N([C@@H](C)CO)C[C@H](C)[C@H](CN(C)S(=O)(=O)c1cn(C)cn1)O2 from this test.
Result block: n

Query block: I'd appreciate the recorded outcome for C=CCC[C@@H](Cc1ccc(F)cc1)C(=O)OC[C@H]1CCCN1C(=O)[C@H](CC=C)CC(=O)N(CCO)Cc1ccccc1 from this test.
Result block: n
